B1: HEEH_KT_rd6_3546 (parent)
chain: SEEDKEREHWERLNRDFELRVLDTTFIAHHAEEVIKLLRWLEK

- Variants of: B1
- ASSAY SUMMARY: folding stability dG (cDNA display proteolysis); higher = more stable
- CONDITION: PBS, room temperature
MEASURE: folding stability dG (kcal/mol)
One number for each entry, in kcal/mol.

RESIDUE CHANGE: V34D
UNIT: kcal/mol
folding stability dG: 0.006

Please state folding stability dG for every variant in the list that follows.
1. E3M
2. V34W
3. E33K
4. H9L
5. L22M
6. L37W
7. F17A
8. E3W

Reply:
1: 1.33; 2: 1.47; 3: 1.62; 4: 1.53; 5: 1.3; 6: 1.63; 7: 0.719; 8: 1.65

Batch request: folding stability dG per item, same order as input.
1. L13A
2. R15S
3. E6D
4. H30C
5. H30N
6. E18Q
7. L22H

Reply:
1. 1.17
2. 1.25
3. 0.956
4. 1.6
5. 1.09
6. 1.72
7. 0.824
